# experimentalDetails: Half life in rat at 1 mg.kg, iv or 2 mg/kg, po by LC/MS/MS analysis
# Assay type: ADME, organism-based
# experimentalConditions: in vivo
testReadout: half-life (h)

(I) CC[C@](C(=O)NC)(c1ccc(Cl)cc1)n1ccc2c(NS(C)(=O)=O)cccc21
(II) CC[C@](CO)(c1ccc(Cl)cc1)n1ccc2c(NS(C)(=O)=O)cccc21
Param pair: I , II . Output: the one whose half-life is numerically greater. Reply with the label of the item you choose.
II

====

# experimentalDetails: Clearance in rat at 1 mg/kg, iv or 2 mg/kg, po by LC/MS/MS analysis
# Type: ADME, organism-based
# experimentalConditions: in vivo
testReadout: clearance (mL/min/kg)

(a) CC[C@](C(=O)NC)(c1ccc(Cl)cc1)n1ccc2c(NS(C)(=O)=O)cccc21
(b) CC[C@](CO)(c1ccc(Cl)cc1)n1ccc2c(NS(C)(=O)=O)cccc21
Which value of clearance is smaller, the one for a or the one for b ? Reply with the label of the item you choose.
b
